B1: FBXO39 (parent)
chain: RVFKARIYTNRYETNEEDKTLQEI

Variants of: B1
Assay: protein stability index of a GFP-peptide fusion (GPS, HEK-293T) (PSI 1-6); higher = more stable;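 note: lentivirally expressed fusions sorted by FACS into six bins by GFP to DsRed ratio, PSI derived from sequencing read proportions per bin multiplied by bin number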
Details: c terminus: a fixed tail appended
ENDPOINT: protein stability index
Numbers only.

Recorded protein stability index, per entry:
RVFKARIYTNRYETNEEDKTLQWI [E23W] | 1.74
RVFKQRIYTNRYETNEEDKTLQEI [A5Q] | 2.7
RVFKARIYTNRYETNEEDKTEQEI [L21E] | 3.38
RVFKARIYTNRYETNEEDKTLQQI [E23Q] | 2.21
RVFKAYIYTNRYETNEEDKTLQEI [R6Y] | 2.62

Lab note: each variant below needs its protein stability index filled in.
1. RVFKIRIYTNRYETNEEDKTLQEI [A5I]
2. RVFKAWIYTNRYETNEEDKTLQEI [R6W]
3. RVFAARIYTNRYETNEEDKTLQEI [K4A]
4. RVFKARIYTNRYETNEEDKMLQEI [T20M]

1. 2.2
2. 1.92
3. 2.55
4. 3.06
